Measured GI50, listed per entry.
Test system: OVCAR-4
measurement.notes: NCI tumour cell line growth inhibition, 48 h
The source made the active and inactive calls. Cut-off read from the data, not from the text of the source: active = GI50 up to about 1.1 µM and inactive = higher.
readout.name: GI50

compound: COC(=O)c1sc2c(Cl)c(Cl)sc2c1Cl
val: > 100 µM (inactive)
--
compound: CO/N=C(\C(=O)Nc1cncs1)c1csc(NC(c2ccccc2)(c2ccccc2)c2ccccc2)n1
val: > 10 µM (inactive)
--
compound: CCOC(=O)C1C(c2ccccc2)=C(c2ccccc2)C(c2ccccc2)=C1c1ccccc1
val: 18.2 µM (inactive)
--
compound: NC(=O)c1cc(C2OC(CO)C(O)C2O)nn1-c1ccc([N+](=O)[O-])cc1 (configuration not stated)
val: > 100 µM (inactive)
--
compound: O=C(O)CCC(NC(=O)c1ccc(Nc2nc3ccc(C(F)(F)F)cc3nc2-c2ccccc2)cc1)C(=O)O (configuration not stated)
val: > 100 µM (inactive)
--
compound: C[C@@H]1O[C@@H](O[C@H]2[C@H](Oc3cc(O)c4c(=O)cc(-c5ccc(O)cc5)oc4c3)O[C@H](CO)[C@@H](O)[C@@H]2O)[C@H](O)[C@H](O)[C@H]1O
val: > 100 µM (inactive)
--
compound: C=CCCC1(C)CCCNC1=S (configuration not stated)
val: > 100 µM (inactive)
